The reported numbers originate from patent US9284286B2.

study-system: KCNQ2/3 channels (Homo sapiens, UniProt O43525+O43526)
Construct: expressed in transfected cells; host or cells: CHO-K1
assay-comment: Fluorescence assay using a voltage sensitive dye (fluorimetry)
Assay type: cell-based
settings: CHO-K1 cells expressing KCNQ2/3 channels; relative to retigabine = 100%; read-out: Fluorimetry % Efficacy (retigabine = 100%)
Parameter threshold = 200%. Response is true when Emax meets or exceeds it, else false.

Some solved entries appear below for comparison.
O=C(NCc1ccc(F)cc1)c1cnccc1SCCC(F)(F)c1ccc(F)cc1 false
O=C(NCc1ccc(F)cc1)c1ccnnc1SCCC(F)(F)c1ccc(F)cc1 false
CC(C)CCNC(=O)c1cncnc1SCCC(F)(F)c1ccc(F)cc1 true
O=C(NCc1ccc(F)cc1)c1cncnc1SCCC(F)(F)c1ccc(F)cc1 false
CC(C)CCNC(=O)c1ncccc1SCCC(F)(F)c1ccc(F)cc1 false

[in] In plain terms: is recorded Emax at least 200% for `Cc1nc(SCCC(F)(F)c2ccc(F)cc2)c(C(=O)NCc2ccc(F)cc2)s1` ?
[out] false

[in] In plain terms: is recorded Emax at least 200% for `CC(C)CCNC(=O)c1cnccc1SCCC(F)(F)c1ccc(F)cc1` ?
[out] true

[in] In plain terms: is recorded Emax at least 200% for `CC(C)(C)CCNC(=O)c1ccccc1SCCCc1ccc(F)cc1` ?
[out] false

----------
study-system: KCNQ2/3 channels (Homo sapiens, UniProt O43525+O43526)
assay-comment: Fluorescence assay using a voltage sensitive dye (fluorimetry)
settings: CHO-K1 cells expressing KCNQ2/3 channels; voltage-sensitive dye, KCl depolarisation; read-out: Fluorimetry EC50/IC50
Task for the reader: assign each of the following molecules its reported pEC50.
Numbers only, as −log10 of the molar value.

The cases that follow already have their pEC50 on record.
CC(C)CCNC(=O)c1ccnnc1SCCC(F)(F)c1ccc(F)cc1 6.37
CC(C)CCNC(=O)c1nccnc1SCCC(F)(F)c1ccc(F)cc1 6.28
Cc1nc(SCCC(F)(F)c2ccc(F)cc2)c(C(=O)NCc2ccc(F)cc2)s1 6.64
CC(C)(C)CCNC(=O)c1ccccc1SCCCc1ccc(F)cc1 6.30
O=C(NCc1ccc(F)cc1)c1ccnnc1SCCC(F)(F)c1ccc(F)cc1 6.58

# batch size: 3; output pEC50 per entry
1. CC(C)CCNC(=O)c1ncccc1SCCC(F)(F)c1ccc(F)cc1
2. O=C(NCc1ccc(F)cc1)c1cnccc1SCCC(F)(F)c1ccc(F)cc1
3. CC(C)CCNC(=O)c1cnccc1SCCC(F)(F)c1ccc(F)cc1

[out]
[5.80, 6.25, 6.07]

// recorded pEC50 for `CC(C)CCNC(=O)c1cncnc1SCCC(F)(F)c1ccc(F)cc1` : 7.21

----------
study-system: KCNQ2/3 channels (Homo sapiens, UniProt O43525+O43526)
assay-comment: Fluorescence assay using a voltage sensitive dye (fluorimetry)
settings: CHO-K1 cells expressing KCNQ2/3 channels; voltage-sensitive dye, KCl depolarisation; read-out: Fluorimetry EC50/IC50
Method: Pharmacological Experiments Fluorescence Assay Using a Voltage Sensitive Dye (Fluorimetry) […] Before being sown out for the measurements, the cells are washed with 1×DPBS buffer Ca^2+/Mg^2+-free (e.g. Invitrogen, #14190-094) and detached from the bottom of the culture vessel by using Accutase (PAA Laboratories, #L11-007) (incubation with Accutase for 15 min at 37° C.). The cell number is determined using a CASY™ cell counter (TCC, Schärfe System). […]
measure: EC50 (nM)
Numbers only, in nM.

The cases that follow already have their EC50 on record.
CC(C)CCNC(=O)c1ccccc1SCCC(F)(F)c1ccc(F)cc1 156
CC(C)CCNC(=O)c1ccncc1SCCC(F)(F)c1ccc(F)cc1 1400

Now for the compound whose EC50 we want.
// recorded EC50 for `O=C(NCc1ccc(F)cc1)c1cncnc1SCCC(F)(F)c1ccc(F)cc1` : 51

----------
study-system: KCNQ2/3 channels (Homo sapiens, UniProt O43525+O43526)
Construct: expressed in transfected cells; host or cells: CHO-K1
assay-comment: Fluorescence assay using a voltage sensitive dye (fluorimetry)
Type: cell-based
settings: CHO-K1 cells expressing KCNQ2/3 channels; relative to retigabine = 100%; read-out: Fluorimetry % Efficacy (retigabine = 100%)
measure: Emax (%)
Give bare numbers, in %.

The cases that follow already have their Emax on record.
molecule	study-system	value-measured
CC(C)CCNC(=O)c1ccncc1SCCC(F)(F)c1ccc(F)cc1 [Example 7]	KCNQ2/3 channels (Homo sapiens, UniProt O43525+O43526)	197
CC(C)CCNC(=O)c1ccnnc1SCCC(F)(F)c1ccc(F)cc1 [Example 12]	KCNQ2/3 channels (Homo sapiens, UniProt O43525+O43526)	203
CC(C)CCNC(=O)c1ccccc1SCCC(F)(F)c1ccc(F)cc1 [Example 1]	KCNQ2/3 channels (Homo sapiens, UniProt O43525+O43526)	203

Now for the molecule whose Emax we want.
Value (Emax, KCNQ2/3 channels (Homo sapiens, UniProt O43525+O43526)) for record CC(C)CCNC(=O)c1nccnc1SCCC(F)(F)c1ccc(F)cc1 [Example 9] = 199
